Test system: WNV (WN-hRuPac cells)
Assay: WNV antiviral activity, WN-hRuPac cells, Renilla luciferase
Assay type: cell-based, West Nile virus
Conditions: West Nile virus; Secondary Data; WNV; read-out: WNV EC50
Measured EC50, listed per entry for reference.
Answer with a number only, understood to be in µM.

Worked cases, answers included:
| smilesEntry | EC50 / µM |
| --- | --- |
| CCOC(=O)c1cnc2c(C)cc(C)cc2c1NCc1ccco1 | 2.52 |
| Cc1ccc(Nc2cc(C)nc3ccc(C)cc23)cc1 | 38.7 |
| COc1ccc2nc(C)cc(Nc3ccc(I)cc3)c2c1 | 50.4 |
| Cc1cc(Nc2ccc(C)c(C)c2)c2cc(Cl)ccc2n1 | 8.66 |
| CCOC(=O)c1cnc2c(ccc3ccccc32)c1NCc1ccco1 | 4.08 |

Query: Recorded EC50 for CCOC(=O)c1cnc2ccc(C)cc2c1NCc1ccco1 , please?
Result: 5.46

Query: Same question for CCOc1ccc2nc(C)cc(Nc3ccc(OCc4ccccc4Cl)cc3)c2c1 please.
Result: 1.9

Query: Same question for Cc1cc(Nc2cccc(Cl)c2C)c2cccc(C)c2n1 please.
Result: 5.72

Query: Same question for Cc1ccc2nc(C)cc(NCc3ccco3)c2c1 please.
Result: 3.76

Query: Same question for CCOC(=O)c1ccc2ncc(C(=O)OCC)c(NCCCOC(=O)C(Cl)(Cl)Cl)c2c1 please.
Result: 8.9
